Test system: Mus musculus
experimentalProtocol: Antagonist effect on estrogen activity assessed as inhibition of estrogen-stimulated uterine weight gain in ovariectomized mouse at 1 mg/kg, po
Type: functional
Param threshold (40%) applies to inhibition in vivo at 1 mg/kg; output criterion met when value >= threshold, criterion not met when value < threshold.

Study these solved cases before continuing.
| compound | cat |
| --- | --- |
| C[C@]1(c2ccc(O)cc2)CSc2cc(O)ccc2[C@H]1CCCCCCCCC(CCCC(F)(F)C(F)(F)F)C(=O)O (stereo partly specified) | criterion not met |
| C[C@]12CC[C@@H]3c4ccc(O)cc4C[C@@H](CCCCCCCC[C@@H](CCCC(F)(F)C(F)(F)C(F)(F)C(F)(F)F)C(=O)O)[C@H]3[C@@H]1CC[C@@H]2O | criterion met |
| C[C@]12CC[C@@H]3c4ccc(O)cc4C[C@@H](CCCCCCCCCC(CCC(F)(F)C(F)(F)C(F)(F)C(F)(F)F)C(=O)O)[C@H]3[C@@H]1CC[C@@H]2O (stereo partly specified) | criterion not met |
| C[C@]12CC[C@@H]3c4ccc(O)cc4C[C@@H](CCCCCCCC[C@H](CCCC(F)(F)C(F)(F)C(F)(F)C(F)(F)F)C(=O)O)[C@H]3[C@@H]1CC[C@@H]2O | criterion met |
| C[C@]12CC[C@@H]3c4ccc(O)cc4C[C@@H](CCCCCCCCC[S+]([O-])CCCC(F)(F)C(F)(F)F)[C@H]3[C@@H]1CC[C@@H]2O (stereo partly specified) [FULVESTRANT] | criterion not met |

We now examine a further compound.
Request: API: above_or_equal(metric=inhibition in vivo at 1 mg/kg, cutoff=40%) for item C[C@]12CC[C@@H]3c4ccc(O)cc4C[C@@H](CCCCCCCCC(CCCC(F)(F)C(F)(F)F)C(=O)O)[C@H]3[C@@H]1CC[C@@H]2O (stereo partly specified)
Response: criterion not met
